Tested on: K. aerogenes A
assay_procedure: MIC, serial dilution in DST agar with 10% horse blood (Table 2)
Type: cell-based
protocol_conditions: Klebsiella aerogenes, inoculum diluted 10^-4
observed_property: MIC (µg/mL)
Answers are plain numbers, in µg/mL.

compound	measure_unit	reported_measurement
CO/N=C(\C(=O)N[C@@H]1C(=O)N2C(C(=O)O)=C(C)c3cnnn3[C@H]12)c1ccco1 [Compound 50]	µg/mL	100
CCSCC(=O)NC1C(=O)N2C(C(=O)O)=C(C)c3cnnn3C12 (stereo not shown) [Compound 48]	µg/mL	50
CC1=C(C(=O)O)N2C(=O)[C@@H](NC(=O)CC#N)[C@H]2n2nncc21 [Compound 49]	µg/mL	100
CC1=C(C(=O)O)N2C(=O)[C@@H](NC(=O)Cc3cccs3)[C@H]2n2nncc21 [Compound 43]	µg/mL	2.5

Now let's try a different one.
Give recorded MIC. CC1=C(C(=O)O)N2C(=O)[C@@H](NC(=O)C(C(=O)Oc3ccccc3)c3ccccc3)[C@H]2n2nncc21 (stereo partly shown) [Compound 44]
10

----------
Test system: S. pneumoniae CN 33
assay_procedure: MIC, serial dilution in DST agar with 10% horse blood (Table 2)
Assay type: cell-based
protocol_conditions: Streptococcus pneumoniae, CN33, inoculum diluted 10^-2
From the text: *Serial dilution in DST agar containing 10% horse blood, inoculum 0.001 m broth culture diluted 10^-2 for Grampositive and 10^-4 for Gramnegative organisms.
yes (1) if MIC is below 10 µg/mL. no (0) if not; exact matches included in no (0).

Worked examples, 4 compounds total:
compound	cat
CCSCC(=O)NC1C(=O)N2C(C(=O)O)=C(C)c3cnnn3C12 (stereo not shown) [Compound 48]	yes (1)
CC1=C(C(=O)O)N2C(=O)[C@@H](NC(=O)CC#N)[C@H]2n2nncc21 [Compound 49]	yes (1)
CC1=C(C(=O)O)N2C(=O)[C@@H](NC(=O)C(F)(F)F)[C@H]2n2nncc21 [Compound 51]	no (0)
CC1=C(C(=O)O)N2C(=O)[C@@H](NC(=O)Cc3cccs3)[C@H]2n2nncc21 [Compound 43]	yes (1)

Hi there! Is MIC for Cc1nnc(SCC2=C(C(=O)O)N3C(=O)[C@@H](NC(=O)Cc4cccs4)[C@H]3n3nncc32)s1 [Compound 60] below 10 µg/mL, do you know?
yes (1)

----------
Tested on: B. subtilis
assay_procedure: MIC, serial dilution in DST agar with 10% horse blood (Table 2)
Assay type: cell-based
protocol_conditions: Bacillus subtilis, inoculum diluted 10^-2
observed_property: MIC (µg/mL)
Numbers only, in µg/mL.

compound	MIC, µg/mL
CC1=C(C(=O)O)N2C(=O)[C@@H](NC(=O)CC#N)[C@H]2n2nncc21	2.5
CC1=C(C(=O)O)N2C(=O)[C@@H](NC(=O)C(C(=O)Oc3ccccc3)c3ccccc3)[C@H]2n2nncc21 (stereo partly shown)	25
CO/N=C(\C(=O)N[C@@H]1C(=O)N2C(C(=O)O)=C(C)c3cnnn3[C@H]12)c1ccco1	5
Cc1nnc(SCC2=C(C(=O)O)N3C(=O)[C@@H](NC(=O)Cc4cccs4)[C@H]3n3nncc32)s1	5
CC1=C(C(=O)O)N2C(=O)[C@@H](NC(=O)C(F)(F)F)[C@H]2n2nncc21	5

Alright, here's another compound for you.
Consider the compound CCSCC(=O)NC1C(=O)N2C(C(=O)O)=C(C)c3cnnn3C12 (stereo not shown) . State its measured MIC.
0.2

----------
Tested on: S. aureus Russell
assay_procedure: MIC, serial dilution in nutrient agar with 5% horse blood (Table 1)
Assay type: cell-based
protocol_conditions: Staphylococcus aureus, inoculum 0.001 ml undiluted broth culture
Provide the recorded MIC for the entries that follow.
Answers are plain numbers, in µg/mL.

Example results:
compound	measure_unit	MIC
CC1=C(C(=O)O)N2C(=O)[C@@H](NC(=O)Cn3ncnn3)[C@H]2n2nncc21 [Compound 47]	µg/mL	5
CC1=C(C(=O)O)N2C(=O)[C@@H](NC(=O)Cc3cccs3)[C@H]2n2nncc21 [Compound 43]	µg/mL	2.5

Give the value of MIC reported for the following: CC1=C(C(=O)O)N2C(=O)[C@@H](NC(=O)C(C(=O)Oc3ccccc3)c3ccccc3)[C@H]2n2nncc21 (stereo partly shown) [Compound 44]
100

----------
Tested on: S. aureus Oxford
assay_procedure: MIC, serial dilution in DST agar with 10% horse blood (Table 2)
Type: cell-based
protocol_conditions: Staphylococcus aureus, inoculum diluted 10^-2
observed_property: MIC

compound	reported_measurement
CC1=C(C(=O)O)N2C(=O)[C@@H](NC(=O)C(C(=O)Oc3ccccc3)c3ccccc3)[C@H]2n2nncc21 (stereo partly shown)	25 µg/mL
CC1=C(C(=O)O)N2C(=O)[C@@H](NC(=O)CC#N)[C@H]2n2nncc21	5 µg/mL

I have 2 compounds here; please give me MIC for each one.
1. CC1=C(C(=O)O)N2C(=O)[C@@H](NC(=O)C(F)(F)F)[C@H]2n2nncc21
2. CC1=C(C(=O)O)N2C(=O)[C@@H](NC(=O)Cc3cccs3)[C@H]2n2nncc21

1. > 100 µg/mL
2. 2.5 µg/mL
